# System: HT29 colon
# ASSAY DETAILS: NCI tumour cell line growth inhibition, 48 h
Form field: TGI (one value per entry).
Quick reminder: number only, in µM, skip the unit.

# annotated cases, reported TGI shown
Query (compound): "COC(=O)[C@@H]1CCCN1C(=O)[C@@H]1CCCN1C(=O)[C@H](Cc1ccccc1)NC(=S)Nc1cc(C(F)(F)F)cc(C(F)(F)F)c1" ; field requested: TGI
6.51

Query (compound): "CCCCCCCCCCCCCCCCNC(=O)OC(C)C" ; field requested: TGI
3.12

New cases:
Query (compound): "CCSc1ccc2c(c1)N(CCCN1CCN(C)CC1)c1ccccc1S2" ; field requested: TGI
3.44

Query (compound): "O=C1c2[nH]cc(CN3CCN(CCO)CC3)c2C(=O)c2c1c(O)c1ccccc1c2O" ; field requested: TGI
31.6

* * *

# System: OVCAR-8 ovarian
# ASSAY DETAILS: NCI tumour cell line growth inhibition, 48 h
Form field: TGI (one value per entry).

Query (molecule): "CC1(C)CC(=O)C(C(=O)C(=O)NC2=C(Cl)C(=O)c3ccccc3C2=O)C(=O)C1" ; field requested: TGI
> 100 µM

Query (molecule): "COc1ccc(-c2cnoc2-c2ccc(OC)cc2O)cc1" ; field requested: TGI
30.4 µM

Query (molecule): Cn1cc2ccccc2c1-c1nc(F)nc(Oc2ccc3c(c2)CC[C@@H]2C3CC[C@@]3(C)C2CC[C@@H]3O)n1 (stereo partly specified) ; field requested: TGI
19.7 µM

Query (molecule): "O=C(O)CCC(=O)C(=O)O" ; field requested: TGI
> 100 µM

New cases:
Query (molecule): "O=Cc1ccc(-c2nccc3c2[nH]c2ccccc23)o1" ; field requested: TGI
> 100 µM

Query (molecule): "O=C(O)CCc1nc2c(n1Cc1ccccc1)C(=O)c1ccccc1C2=O" ; field requested: TGI
> 100 µM

Query (molecule): "COc1ccc(NCC#N)cc1" ; field requested: TGI
> 100 µM

* * *

# Tested on: U251 CNS
# ASSAY DETAILS: NCI tumour cell line growth inhibition, 48 h
Form field: TGI (one value per entry).

# annotated cases, reported TGI shown
Query (compound): "O[C@H]1C=C2[C@H](C[C@@H]1O)CN1C[C@H]2c2cc3c(cc21)OCO3" ; field requested: TGI
94.1 µM

Query (compound): "CN1CCN(Cc2ccc(NC(=O)c3nc4ccc5[nH]ncc5c4c4c3CCCC4)cc2C(F)(F)F)CC1" ; field requested: TGI
1.78 µM

Query (compound): "c1cc(N2CCN(c3ccc(C4=NCCN4)cc3)CC2)ccc1C1=NCCN1" ; field requested: TGI
> 100 µM

Query (compound): "Cn1c([N+](=O)[O-])cnc1CN1CCN(CCO)CC1" ; field requested: TGI
> 100 µM

Query (compound): "CCN(CC)c1ccc2cc(C(=O)Nc3ccccc3OC)c(=N)oc2c1" ; field requested: TGI
> 100 µM

Query (compound): "Cc1cccc(NC(=S)Nc2ccc(Cl)cc2)n1" ; field requested: TGI
> 100 µM

Please find the next compound below.
Query (compound): "O=S(=O)(O)c1ccc2c(N=Nc3cccc4ccccc34)c(O)c(S(=O)(=O)O)cc2c1" ; field requested: TGI
> 100 µM

* * *

# System: RPMI-8226 leukemia
# ASSAY DETAILS: NCI tumour cell line growth inhibition, 48 h
ENDPOINT LABEL: TGI

# annotated cases, reported TGI shown
Query (compound): "O=Cc1ccc(-c2nccc3c2[nH]c2ccccc23)o1" ; field requested: TGI
> 100 µM

Query (compound): O=NNc1ccc(S(=O)c2ccccc2)cn1 (stereo unspecified) ; field requested: TGI
> 100 µM

Query (compound): "CCOC(=O)c1ccc(NC(=O)Nc2nccs2)cc1" ; field requested: TGI
> 39.5 µM

Query (compound): "O=C1c2ccccc2C(=O)N1CCn1nc(-c2ccccc2)cc(-c2ccccc2)c1=O" ; field requested: TGI
36.9 µM

New cases:
Query (compound): O=C(CC1(O)C(=O)Nc2ccc([N+](=O)[O-])cc21)c1ccc2ccccc2c1 (stereo unspecified) ; field requested: TGI
> 100 µM

Query (compound): "COc1ccc2c(c1)CC[C@@H]1[C@@H]2CC[C@]2(C)C(c3ccsc3)=C(/C=C/C(=O)c3ccccc3)C[C@@H]12" ; field requested: TGI
> 100 µM

Query (compound): "COC(=O)c1sc(=O)n(-c2ccccc2)c1SCc1ccccc1" ; field requested: TGI
> 100 µM

Query (compound): "O=C1C(c2ccccc2)=C(c2ccccc2)C(c2ccc(-c3ccc(C4=C(c5ccccc5)C(=O)C(c5ccccc5)=C4c4ccccc4)cc3)cc2)=C1c1ccccc1" ; field requested: TGI
> 100 µM

Query (compound): CCC#CCCCCCCCCC(F)C(=O)O (stereo unspecified) ; field requested: TGI
> 100 µM

Query (compound): "O=C(O)C1(C(=O)O)CC1" ; field requested: TGI
> 100 µM

Query (compound): "CCCCC/C=C/C(=O)CCc1ccc(O)c(OC)c1" ; field requested: TGI
4.34 µM

Query (compound): "COC(=O)c1cc2cc(-c3ccc(OC)cc3)cnc2[nH]1" ; field requested: TGI
> 28 µM

Query (compound): "COc1ccc(NCC#N)cc1" ; field requested: TGI
> 100 µM

Query (compound): "C=C(C)[C@@H]1CC[C@]2(COC(C)=O)CC[C@]3(C)[C@H](CC[C@@H]4[C@@]5(C)CCCN(C(C)=O)C(C)(C)[C@@H]5CC[C@]43C)[C@@H]12" ; field requested: TGI
4.19 µM

Query (compound): "CN(CCO)C1CCN(c2ccc(Nc3ncc4c5ccnc(F)c5n(C5CCCC5)c4n3)nc2)CC1" ; field requested: TGI
19.8 µM

Query (compound): "Clc1ccc(C(c2ccc(Cl)cc2)c2cncnc2)cc1" ; field requested: TGI
> 100 µM

Query (compound): "CCN(CC)CCCN1C(=O)c2c(c(C)c3c(oc4ccc(O)cc43)c2C)C1=O" ; field requested: TGI
4.28 µM

Query (compound): "O=CCOCc1cc2c(cc1Br)OCO2" ; field requested: TGI
> 100 µM

Query (compound): CC(=O)OCC1OC(NC(=S)CCSc2nc3ccccc3c(=O)n2-c2ccccc2)C(OC(C)=O)C(OC(C)=O)C1OC(C)=O (stereo unspecified) ; field requested: TGI
> 100 µM

Query (compound): O=C(C(Br)C(Br)c1ccccc1)C(Br)C(Br)c1ccccc1 (stereo unspecified) ; field requested: TGI
1.33 µM

Query (compound): "COc1ccc(-c2cnoc2-c2ccc(OC)cc2O)cc1" ; field requested: TGI
67.4 µM

All values here come from PubChem BioAssay (NCI).
